This section presents compounds with their documented normalized growth values.
Experiment: chemical genetic growth profiling, strain panel (AID 1159580);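 also: tested at 20 µM; growth read once vehicle control cultures reached saturation at 30 °C; 1 = growth at the plate median or of vehicle wells; lower values mean less growth of the strain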
Details: S. cerevisiae deletion strains, growth OD, locus YMR231W, strain pep5, hits give low values
In all, about 5,500 compounds went through this assay and about 2,000 (36%) were called active. Inconclusive results (about 18%) are left out. The list shows a part of the results.
Number, no unit, nothing else.

| compound | normalized growth |
| --- | --- |
| O=C(/C=C(\O)c1ccccc1)c1ccccc1O | 0.083 |

Could you share which normalized growth value was measured for O=C(O)c1ccccc1O ?
0.976

Then what about the compound CCC(=O)NCC[C@@H]1CCc2ccc3c(c21)CCO3 ?
1

Param item: NC(=O)c1ccccc1O
0.965

// repeat for COc1cccc2c1CCC1=CC(=O)CC[C@@]12C and report
1

Try this compound next: CO[C@H]1[C@@H](O)[C@@H](C)O[C@H](O[C@H]2CCC3(C)C4CCC5(C)[C@@H](C6=CC(=O)OC6)CC[C@]5(O)[C@@H]4CC[C@]3(O)C2)[C@@H]1O (stereo partly specified)
1

---

Assay: chemical genetic growth profiling, strain panel (AID 1159580);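 also: tested at 20 µM; growth read once vehicle control cultures reached saturation at 30 °C; 1 = growth at the plate median or of vehicle wells; lower values mean less growth of the strain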
Conditions: S. cerevisiae deletion strains, growth OD, locus YER133W, strain GLC7, hits give low values
Screen size: about 5,500 compounds; about 2,000 (36%) were called active. About 18% were inconclusive and are not listed. The list shows a part of the results.
# if measured normalized growth < 0.9: MET  # else: NOT MET

| compound | class |
| --- | --- |
| CN1/C(=C/C=C/c2ccc3ccccc3[n+]2C)C=Cc2ccccc21 | MET |
| CO/N=C1/CC(C)(C)Cc2c(-c3ccn(C(=O)Nc4cccc(Cl)c4)n3)sc(SC)c21 | NOT MET |

Please determine if O=S(=O)(c1cc(Cl)ccc1Cl)N1CCc2ccccc2C1 is below 0.9 in terms of normalized growth.
NOT MET

Item: COc1ccccc1N1CCN(C(=O)C(C)c2ccc(CC(C)C)cc2)CC1 (stereo not given)
NOT MET

// next record COc1ccc(Br)c(C(=O)/C(C#N)=C/c2cccs2)c1
MET

And for O=C1Nc2ccccc2/C1=C\c1c[nH]c2ccccc12 ?
MET

Do the same for O=c1cc(CSc2ccc(Cl)cc2)c2ccc(O)cc2o1 please
MET

Now consider N/C(=N/OC(=O)c1cnn(-c2ccc([N+](=O)[O-])cc2)c1C(F)(F)F)c1ccc(Cl)cc1 and answer again.
MET

---

Assay: chemical genetic growth profiling, strain panel (AID 1159580);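 also: tested at 20 µM; growth read once vehicle control cultures reached saturation at 30 °C; 1 = growth at the plate median or of vehicle wells; lower values mean less growth of the strain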
Conditions: S. cerevisiae deletion strains, growth OD, locus YNL248C, strain rpa49, hits give low values
The whole screen tested about 5,500 compounds, of which about 2,000 (36%) were called active. Inconclusive results (about 18%) are left out. The list shows a part of the results.
Threshold-based label: normalized growth under 1 gives 1.0, normalized growth not under 1 gives 0.0.

For orientation, consider the following solved cases.
| compound | class |
| --- | --- |
| Oc1ccc2c3c1OC1[C@@H](O)CC[C@@]4(O)[C@@H](C2)N(CC2CCC2)CC[C@]314 (some centres not stated) | 1.0 |
| CCn1nc(C(=O)O)c(=O)c2cc3c(cc21)OCO3 | 1.0 |
| CC(=O)O[C@@H]1c2c(ccc3ccc(=O)oc23)OC(C)(C)[C@@H]1OC(=O)CC(C)C | 1.0 |
| CC1(C)[C@@H]2CC[C@@]1(C)C(=O)C2 | 0.0 |

Now consider the entry below.
Threshold test, normalized growth < 1: O=C(CCCN1CCC2(CC1)C(=O)NCN2c1ccccc1)c1ccc(F)cc1
1.0
